Assay Target: UniProt P54690
Sequence (P54690 1-411): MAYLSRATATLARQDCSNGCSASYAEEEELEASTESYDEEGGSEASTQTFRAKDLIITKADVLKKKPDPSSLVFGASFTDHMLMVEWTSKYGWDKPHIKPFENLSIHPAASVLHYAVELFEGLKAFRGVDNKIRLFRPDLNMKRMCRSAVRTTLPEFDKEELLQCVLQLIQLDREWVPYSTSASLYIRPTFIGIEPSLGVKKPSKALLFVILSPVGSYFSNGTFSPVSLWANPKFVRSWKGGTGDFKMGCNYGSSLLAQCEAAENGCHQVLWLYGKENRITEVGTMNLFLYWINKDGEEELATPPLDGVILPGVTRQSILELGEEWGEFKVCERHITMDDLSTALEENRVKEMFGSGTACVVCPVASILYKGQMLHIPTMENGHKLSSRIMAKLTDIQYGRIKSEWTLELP
Assay Text: In vitro coupled enzyme assay (glutamate dehydrogenase, NADH formation), rat BCATc
Conditions: recombinant rat BCATc, 37° C., 25 mM phosphate buffer pH 7.8; several values in a cell = repeat determinations; read-out: RrBCATc
# Lookup of reported pIC50 keyed by entry
// pIC50 here means minus log10 of the molar concentration (mol/L)

Below, 3 molecules whose answers are already recorded.
> print(dat)
                                   molecule    assay.target  parameter  result.value
1  Cc1ccc2oc(C(=O)NNS(=O)(=O)c3cccc(Br)c3)cc2c1 [Example 83]  UniProt P54690      pIC50          6.06
2  CCCCCc1ccc(S(=O)(=O)NNC(=O)c2cnc3ccccc3c2)cc1 [Example 122]  UniProt P54690      pIC50          4.25
3  O=C(NNS(=O)(=O)c1ccccc1Cl)c1cc2cc(Cl)ccc2o1 [Example 42]  UniProt P54690      pIC50          5.89

Switching to the query record.
Looking up Cc1ccc2oc(C(=O)NNS(=O)(=O)c3ccccc3OC(F)(F)F)cc2c1 [Example 85] , I found its pIC50 recorded as 5.86

====

# Lookup of reported melting point keyed by entry

Below, 5 compounds whose answers are already recorded.
> print(dat)
                                   compound       result.value
1  O=C(NNS(=O)(=O)c1ccccc1OC(F)(F)F)c1cc2cc(Cl)ccc2o1  218.2 to 219.8 °C
2  Cc1ccc(F)cc1S(=O)(=O)NNC(=O)c1cc2cc(Cl)ccc2o1  209.6 to 211.2 °C
3  O=C(NNS(=O)(=O)c1ccccc1)c1nccc2ccccc12 (hydrate or solvate)      198 to 200 °C
4  COc1cccc(S(=O)(=O)NNC(=O)c2ccc3ncccc3c2)c1  201.9 to 202.7 °C
5  COc1ccc2oc(C(=O)NNS(=O)(=O)c3ccccc3)c(OC(C)C)c2c1 (hydrate or solvate)      127 to 129 °C

Looking up "O=C(NNS(=O)(=O)c1cccc(F)c1)c1cc2cc(Cl)ccc2o1" , I found its melting point recorded as 174.4 to 174.7 °C

Looking up "N#Cc1cccc(S(=O)(=O)NNC(=O)c2cc3cc(Cl)ccc3o2)c1" , I found its melting point recorded as 208.5 to 210 °C

Looking up "CCCc1ccc(S(=O)(=O)Nc2ccc3oc(C(=O)NNS(=O)(=O)c4ccccc4)cc3c2)cc1" , I found its melting point recorded as 160.4 to 161.1 °C

Looking up "COc1ccc2c(OC)c(C(=O)NNS(=O)(=O)c3ccccc3)oc2c1" , I found its melting point recorded as 174.8 to 175.2 °C

Looking up "O=C(NNS(=O)(=O)c1cccc(Br)c1)c1cc2cc(Cl)ccc2o1" , I found its melting point recorded as 218.1 to 220 °C

Looking up O=C(NNS(=O)(=O)c1cccc(F)c1)c1ccc2ncccc2c1 (hydrate or solvate) , I found its melting point recorded as 250.6 to 251.3 °C

Looking up "O=C(NNS(=O)(=O)c1cccc(Br)c1)c1cnc2ccccc2c1" , I found its melting point recorded as 231.5 to 232.3 °C

Looking up "O=C(NNS(=O)(=O)c1cccc(Br)c1)c1cc2cc(Cl)cc(Cl)c2o1" , I found its melting point recorded as 248.5 to 248.8 °C
